Data provenance: patent US20250333496A1

- system_under_test: human IL-6 (mature hIL-6) (human, UniProt P05231 30-212)
- Sequence (P05231 30-212): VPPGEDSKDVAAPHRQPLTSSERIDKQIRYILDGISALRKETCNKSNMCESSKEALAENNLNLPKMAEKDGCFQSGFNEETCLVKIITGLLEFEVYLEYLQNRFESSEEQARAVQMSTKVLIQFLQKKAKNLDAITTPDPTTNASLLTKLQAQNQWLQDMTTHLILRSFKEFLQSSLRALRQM
- test_description: cell-based or functional assay
outcome_measure: IC 50 (nM), reporter gene assay, 1% HSA
# value in nM; strip the unit string

binder	endpoint_unit	recorded_result
Compound 10 (VHH, Chem. 24 (C16 diacid substituent) on Cys in position 4 and on Cys in position 6 of the extension (SEQ ID NO: 72), Polypeptide derivative; extension E2 at the C-terminus of the VHH; also called VHH_1.7-E2 with 2x Chem. 24) VHH: EVQLVESGGGLVQPGGSLQLSCTTSGRKFDEYAVGWFRQGPGQEREFVADIGENAENTWYAESVLGRFTISRDDAKNTVYLEMDGLKPEDTAVYYCAADKYGVGGNAQGYYDSWGQGTQVTVSS	nM	0.016

The measured IC 50 (nM), reporter gene assay, 1% HSA associated with Polypeptide_34 (VHH, VHH_1.8 with C-terminal His tag extension E1; also called [VHH_1.8]-E1) VHH: EVQLVESGGGLVQAGGSLRLSCTASGGTFSEYAMAWFRQAPGKEREFVTDIGESGGTWYADSVKGRFTISRDNAKNTVYLQMNSLRPEDTAVYYCAADSYGVGGGAERYYDSWGQGTQVTVSS reads 0.046
